target: hGLP-1R (Homo sapiens, UniProt P43220); assay: Measurement of activity of GLP-1R agonist (cell-based luciferase assay), CHO-K1/hGLP-1R/CRE-luciferase cell line; settings: GLP-1R activity; CHO-K1/hGLP-1R/CRE-luciferase cells, 9 concentrations, four hours of incubation, Bright-Glo luminescence
Sequence (P43220 24-463): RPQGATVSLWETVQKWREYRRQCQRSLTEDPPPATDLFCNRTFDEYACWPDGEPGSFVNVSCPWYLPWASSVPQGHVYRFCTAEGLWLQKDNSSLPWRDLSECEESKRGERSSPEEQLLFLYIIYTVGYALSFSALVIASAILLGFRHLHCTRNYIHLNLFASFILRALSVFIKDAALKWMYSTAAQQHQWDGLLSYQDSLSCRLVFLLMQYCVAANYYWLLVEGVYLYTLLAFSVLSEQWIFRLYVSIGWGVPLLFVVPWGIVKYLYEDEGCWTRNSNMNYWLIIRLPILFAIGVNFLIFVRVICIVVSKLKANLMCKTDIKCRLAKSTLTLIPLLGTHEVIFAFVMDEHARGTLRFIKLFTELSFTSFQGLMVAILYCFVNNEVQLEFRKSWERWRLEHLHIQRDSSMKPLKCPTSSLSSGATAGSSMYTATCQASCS
REPORTED METRIC: EC50 (nM)
Give your result in nM as a bare value.

RECORD SMILES: N#Cc1ccc(COc2cccc(-c3ccc(Oc4nc5ccc(C(=O)O)cc5n4Cc4cnco4)cc3)n2)c(F)c1
EC50, nM: 0.7
--
RECORD SMILES: O=C(O)c1ccc2nc(Cc3ccc(-c4cccc(OCc5ccc(Cl)cc5F)n4)c(F)c3)n(Cc3cnco3)c2c1
EC50, nM: 0.061

Continue with the compound presented below.
### Prompt Which EC50 is listed for O=C(O)c1ccc2nc(Cc3ccc(-c4cccc(OCc5ccc(Cl)cc5F)n4)c(Cl)c3)n(Cc3cnco3)c2c1 ?
### Response 0.635

###

Target: hGLP-1R (Homo sapiens)
Assay: Measurement of activity of GLP-1R agonist (cell-based luciferase assay), CHO-K1/hGLP-1R/CRE-luciferase cell line
Details: GLP-1R activity; CHO-K1/hGLP-1R/CRE-luciferase cells, 9 concentrations, four hours of incubation, Bright-Glo luminescence
Experimental: 15,000 cells of a CHO-K1/hGLP-1R/CRE-luciferase cell line were seeded in a 96-well plate. A medium used herein was Ham’s F-12 Nutrient medium. The cells were incubated for 18 hours in a 5% CO2 incubator which was maintained at 37° C., and then treated with drugs. […] A plate was stored at room temperature for 15 minutes, and then luminescence was measured using a SpectraMax M5 reader.
pEC50: −log10 of the molar value.
Label scheme, based on pEC50: lower segment (below 9), middle segment (9 to below 10), upper segment (10 or more)

Please review the entries below; each comes with its answer.
COMPOUND: O=C(O)c1ccc2nc(Cc3ccc(-c4cccc(OCc5ccc(C(F)(F)F)cc5F)n4)cc3)n(C[C@@H]3CCOC3)c2c1
CATEGORY LABEL: lower segment
//
COMPOUND: O=C(O)c1ccc2nc(Cc3ccc(-c4cccc(OCc5ccc(Cl)cc5F)n4)cc3F)n(C[C@@H]3CCCO3)c2c1
CATEGORY LABEL: upper segment

### Prompt Classify this compound: O=C(O)c1ccc2nc(Cc3ccc(-c4cccc(OCc5ccc(C(F)(F)F)cc5F)n4)cc3)n(C[C@@H]3CCO3)c2c1
### Response lower segment

### Prompt Now this one: CCn1cncc1Cn1c(Cc2ccc(-c3cccc(OCc4ccc(C#N)cc4F)n3)cc2)nc2ccc(C(=O)O)cc21
### Response upper segment

### Prompt Same read-out for O=C(O)c1ccc2nc(Oc3ccc(-c4cccc(OCc5ccc(Cl)cc5F)n4)cc3Cl)n(C[C@@H]3CCO3)c2c1 ?
### Response middle segment

### Prompt Repeat for the following compound: O=C(O)c1ccc2nc(Cc3ccc(-c4cccc(OCc5ccc(C(F)(F)F)cc5F)n4)cc3)n(C[C@@H]3CCCO3)c2c1
### Response middle segment

### Prompt Further, for CCCn1cnnc1Cn1c(Cc2ccc(-c3cccc(OCc4ccc(C(F)(F)F)cc4F)n3)cc2)nc2ccc(C(=O)O)cc21 ?
### Response middle segment

### Prompt Cool, now O=C(O)c1ccc2nc(Cc3ccc(-c4cccc(OCc5ccc(Cl)cc5F)n4)cc3)n(CC3CCCO3)c2c1 (centres unmarked)
### Response middle segment

### Prompt Also, CCn1cncc1Cn1c(Oc2ccc(-c3cccc(OCc4ccc(C#N)cc4F)n3)cc2)nc2ccc(C(=O)O)cc21 please.
### Response upper segment

###

molecular target: hGLP-1R (Homo sapiens, UniProt P43220); assay: Measurement of activity of GLP-1R agonist (cell-based luciferase assay), CHO-K1/hGLP-1R/CRE-luciferase cell line; conditions: GLP-1R activity; CHO-K1/hGLP-1R/CRE-luciferase cells, 9 concentrations, four hours of incubation, Bright-Glo luminescence
pEC50: −log10 of the molar value.
pEC50 of 10 or higher: t. Under 10: f.

Example cases with answers are listed next.
COMPOUND: O=C(O)c1ccc2nc(Cc3ccc(-c4cccc(OCc5ccc(C(F)(F)F)cc5F)n4)cc3)n(Cc3cnco3)c2c1 [Example 21]
ASSAY SYSTEM: hGLP-1R (Homo sapiens, UniProt P43220)
CATEGORY LABEL: f

COMPOUND: O=C(O)c1ccc2nc(Cc3ccc(-c4cccc(OCc5ccc(Cl)cc5F)n4)c(F)c3)n(C[C@@H]3CCO3)c2c1 [Example 15]
ASSAY SYSTEM: hGLP-1R (Homo sapiens, UniProt P43220)
CATEGORY LABEL: t

COMPOUND: N#Cc1ccc(COc2cccc(-c3ccc(Oc4nc5ccc(C(=O)O)cc5n4C[C@@H]4CCO4)cc3)n2)c(F)c1 [Example 6]
ASSAY SYSTEM: hGLP-1R (Homo sapiens, UniProt P43220)
CATEGORY LABEL: f

COMPOUND: O=C(O)c1ccc2nc(Cc3ccc(-c4cccc(OCc5ccc(Cl)cc5F)n4)cc3)n(C[C@H]3CCCO3)c2c1 [Example 13]
ASSAY SYSTEM: hGLP-1R (Homo sapiens, UniProt P43220)
CATEGORY LABEL: f

### Prompt Does pEC50 meet or surpass 10 for O=C(O)c1ccc2nc(Oc3ccc(-c4cccc(OCc5ccc(Cl)cc5F)n4)cc3Cl)n(C[C@@H]3CCCO3)c2c1 [Example 32] ?
### Response f

### Prompt Follow-up item: O=C(O)c1ccc2nc(Oc3ccc(-c4cccc(OCc5ccc(Cl)cc5F)n4)cc3F)n(C[C@@H]3CCO3)c2c1 [Example 17]
### Response f

###

target: hGLP-1R (Homo sapiens); assay: Measurement of activity of GLP-1R agonist (cell-based luciferase assay), CHO-K1/hGLP-1R/CRE-luciferase cell line; conditions: GLP-1R activity; CHO-K1/hGLP-1R/CRE-luciferase cells, 9 concentrations, four hours of incubation, Bright-Glo luminescence
REPORTED METRIC: log10 of EC50 (log10 of the value in pM)
The base-10 logarithm of EC50, taken with EC50 in pM, is what appears here.

RECORD SMILES: O=C(O)c1ccc2nc(Cc3ccc(-c4cccc(OCc5ccc(Cl)cc5F)n4)cc3)n(C[C@@H]3CCO3)c2c1
ASSAY SYSTEM: hGLP-1R (Homo sapiens)
log10 of EC50: 0.85

### Prompt Need log10 of EC50, item O=C(O)c1ccc2nc(Cc3ccc(-c4cccc(OCc5ccc(Cl)cc5F)n4)c(Cl)c3)n(C[C@@H]3CCOC3)c2c1
### Response 3.13

### Prompt Thanks! And O=C(O)c1ccc2nc(Cc3ccc(-c4cccc(OCc5ccc(Cl)cc5F)n4)cc3)n(C[C@@H]3CCCO3)c2c1 ?
### Response 1.85

### Prompt Subsequent entry: CCCn1cnnc1Cn1c(Cc2ccc(-c3cccc(OCc4ccc(Cl)cc4F)n3)cc2)nc2ccc(C(=O)O)cc21
### Response 2.22

### Prompt Now this one: O=C(O)c1ccc2nc(Cc3ccc(-c4cccc(OCc5ccc(Cl)cc5F)n4)cc3)n(C[C@H]3CCOC3)c2c1
### Response 2.56

### Prompt Further, for O=C(O)c1ccc2nc(Oc3ccc(-c4cccc(OCc5ccc(Cl)cc5F)n4)cc3)n(C[C@@H]3CCO3)c2c1 ?
### Response 1.82

###

molecular target: hGLP-1R (Homo sapiens); assay: Measurement of activity of GLP-1R agonist (cell-based luciferase assay), CHO-K1/hGLP-1R/CRE-luciferase cell line; conditions: GLP-1R activity; CHO-K1/hGLP-1R/CRE-luciferase cells, 9 concentrations, four hours of incubation, Bright-Glo luminescence
Here, each record is paired with measured pEC50 data.
The value called pEC50 is obtained by taking minus log10 of the concentration in mol/L.

Answered cases to consult:
COMPOUND: O=C(O)c1ccc2nc(Oc3c(F)cc(-c4cccc(OCc5ccc(Cl)cc5F)n4)cc3F)n(C[C@@H]3CCO3)c2c1
pEC50: 8.88
--
COMPOUND: CCCn1cnnc1Cn1c(Cc2ccc(-c3cccc(OCc4ccc(Cl)cc4F)n3)c(F)c2)nc2ccc(C(=O)O)cc21
pEC50: 9.89
--
COMPOUND: CCCn1cnnc1Cn1c(Cc2ccc(-c3cccc(OCc4ccc(Cl)cc4F)n3)c(Cl)c2)nc2ccc(C(=O)O)cc21
pEC50: 9.11
--
COMPOUND: O=C(O)c1ccc2nc(Cc3ccc(-c4cccc(OCc5ccc(Cl)cc5F)n4)cc3)n(C[C@@H]3CCOC3)c2c1
pEC50: 9.11

Turning to the following compound.
### Prompt // lookup pEC50 for O=C(O)c1ccc2nc(Oc3ccc(-c4cccc(OCc5ccc(Cl)cc5F)n4)cc3)n(CC3CCCO3)c2c1 (centres unmarked)
### Response 8.95

###

Measured pEC50 by item
target: UniProt P43220; assay: Measurement of activity of GLP-1R agonist (cell-based luciferase assay), CHO-K1/hGLP-1R/CRE-luciferase cell line; settings: GLP-1R activity; CHO-K1/hGLP-1R/CRE-luciferase cells, 9 concentrations, four hours of incubation, Bright-Glo luminescence
Formally, pEC50 is defined as -log10 of the concentration c, with c in mol/L.

### Prompt Entry O=C(O)c1ccc2nc(Cc3ccc(-c4cccc(OCc5ccc(Cl)cc5F)n4)c(Cl)c3)n(C[C@@H]3CCCO3)c2c1 has what pEC50?
### Response 10.06

### Prompt Check O=C(O)c1ccc2nc(Cc3ccc(-c4cccc(OCc5ccc(Cl)cc5F)n4)cc3F)n(Cc3cnco3)c2c1 too.
### Response 10.13

### Prompt Please answer likewise for O=C(O)c1ccc2nc(Oc3ccc(-c4cccc(OCc5ccc(Cl)cc5F)n4)c(F)c3)n(C[C@@H]3CCO3)c2c1
### Response 9.92
